Reported ΔStotal^conf by item:
# MEASURED_TARGET: calmodulin (Homo sapiens, UniProt P0DP23)
# MEASUREMENT_PROTOCOL: Uncalibrated estimate of conformational entropy of binding from methyl group dynamics of CaM and target domain
# Set-up: made in house
# CONDITIONS_USED: includes classical term from slow-exchange minor cross peaks

>  <SUBSTANCE>
AKSKWKQAFNATAVVRHMRKLQ (listed as Homo sapiens) [CaMKI(p)]

>  <ΔStotal^conf / kcal/mol>
63.1334

$$$$
>  <SUBSTANCE>
(COOH-FPNGFSRKRLMSKVLIVTTWSPLL [CaMKKα(p)]

>  <ΔStotal^conf / kcal/mol>
49.7978

$$$$
>  <SUBSTANCE>
RKKTFKEVANAVKISASLMG [eNOS(p)]

>  <ΔStotal^conf / kcal/mol>
53.5045

$$$$
>  <SUBSTANCE>
KRRAIGFKKLAEAVKFSAKLMGQ [nNOS(p)]

>  <ΔStotal^conf / kcal/mol>
46.7409

$$$$
